Reference for the values: patent US11944622B2

Each item that follows carries a reported pEC50.
TEST TARGET: UniProtKB P35414
Sequence (P35414 1-380): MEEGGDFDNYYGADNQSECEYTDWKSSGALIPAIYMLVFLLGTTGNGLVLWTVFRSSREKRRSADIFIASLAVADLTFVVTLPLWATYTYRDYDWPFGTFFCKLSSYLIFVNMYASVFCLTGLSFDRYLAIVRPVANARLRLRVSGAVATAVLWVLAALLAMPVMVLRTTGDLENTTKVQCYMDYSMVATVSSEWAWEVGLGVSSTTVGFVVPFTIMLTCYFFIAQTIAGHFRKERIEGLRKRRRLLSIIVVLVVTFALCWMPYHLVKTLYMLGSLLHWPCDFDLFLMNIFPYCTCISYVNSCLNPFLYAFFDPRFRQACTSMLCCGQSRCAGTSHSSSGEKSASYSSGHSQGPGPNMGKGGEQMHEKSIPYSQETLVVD
PROTOCOL: APJ cAMP assay (DiscoverX enzyme fragment complementation; inhibition of forskolin-stimulated cAMP)
CONDITION NOTES: CHO-K1 cell line stably expressing the APJ Receptor; EC80 forskolin; 30 minutes at 37° C.; read-out: Potency Range (APJ cAMP EC50)
pEC50: −log10 of the molar value.

Examples with answers:
Asked: Need pEC50, item CCOc1cccc(-c2nc3nc(Cl)cnc3n2-c2c(OC)cccc2OC)n1
Given back: 5.00 to 7.00

Asked: # get_value(readout='pEC50', item= CCOc1cccc(-c2nc3nc(Cl)c(NS(=O)(=O)Cc4ccc(C)cc4F)nc3n2-c2c(OC)cccc2OC)n1 )
Given back: 7.00 to 9.00

Asked: Returns the measured pEC50 for the input compound. Input: CCOc1cccc(-c2nc3ncc(NS(=O)(=O)Cc4cccnc4)nc3n2-c2c(OC)cccc2OC)n1
Given back: 7.00 to 9.00

Asked: GET /values?readout=pEC50&item= CCOc1cccc(-c2nc3nc(Cl)c(NS(=O)(=O)CC4(O)CC4)nc3n2-c2c(OC)cccc2OC)n1
Given back: 7.00 to 9.00

Asked: Give the measured pEC50 of CCOc1cccc(-c2nc3ncc(NS(=O)(=O)Cc4ccc(C)cn4)nc3n2-c2c(OC)cccc2OC)n1 .
Given back: > 9.00

Asked: Given the entry CCOc1cccc(-c2nc3ncc(NS(=O)(=O)C[C@@H]4CCN(C)C(=O)C4)nc3n2-c2c(OC)cccc2OC)n1 , report its measured pEC50.
Given back: > 9.00

Continuing:
Asked: GET /values?readout=pEC50&item= CCOc1cccc(-c2nc3nc(Cl)c(NS(=O)(=O)c4ccc(C)cn4)nc3n2-c2c(OC)cccc2OC)n1
Given back: > 9.00

----------
TEST TARGET: APJ Receptor (Homo sapiens)
Sequence (P35414 1-380): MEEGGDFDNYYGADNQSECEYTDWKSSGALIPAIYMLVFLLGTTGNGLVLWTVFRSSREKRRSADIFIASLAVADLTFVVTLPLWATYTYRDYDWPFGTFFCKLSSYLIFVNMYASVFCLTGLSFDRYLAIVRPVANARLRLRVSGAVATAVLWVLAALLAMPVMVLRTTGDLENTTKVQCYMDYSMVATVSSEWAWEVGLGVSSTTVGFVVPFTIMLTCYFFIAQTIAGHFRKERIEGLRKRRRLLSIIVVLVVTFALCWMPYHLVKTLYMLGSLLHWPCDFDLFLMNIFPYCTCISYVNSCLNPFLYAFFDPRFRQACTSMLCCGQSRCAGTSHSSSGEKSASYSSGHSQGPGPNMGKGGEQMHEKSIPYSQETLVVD
PROTOCOL: APJ cAMP assay (DiscoverX enzyme fragment complementation; inhibition of forskolin-stimulated cAMP)
Assay type: cell-based
CONDITION NOTES: CHO-K1 cell line stably expressing the APJ Receptor; EC80 forskolin; 30 minutes at 37° C.; read-out: Potency Range (APJ cAMP EC50)
READOUT LABEL: EC50

Worked examples follow.
Asked: Which measured EC50 belongs to CCOc1cccc(-c2cc3ncc(NS(C)(=O)=O)nc3n2-c2c(OC)cccc2OC)n1 , tested on APJ Receptor (Homo sapiens)?
Given back: 100 to 10000 nM

Asked: Field: EC50 (APJ Receptor (Homo sapiens)). Entry: COc1cccc(OC)c1-n1c(-c2cncc(C)c2)nc2ncc(NS(C)(=O)=O)nc21
Given back: 100 to 10000 nM

Asked: Request - read-out EC50 | tested on APJ Receptor (Homo sapiens) | compound COc1cccc(OC)c1-n1c(-c2cncc(C)c2)nc2ncc(NS(=O)(=O)C3CC3)nc21
Given back: 100 to 10000 nM

Here is the next item to consider.
Asked: Which EC50 is reported with APJ Receptor (Homo sapiens) for this entry: CCOc1cccc(-c2nc3ncc(NS(=O)(=O)Cc4ccccn4)nc3n2-c2c(OC)cccc2OC)n1 ?
Given back: 1 to 100 nM
